Catalogue of pIC50 readings, one per entry.
# studyTarget: S. aureus 133 Translation
# testDescription: S. aureus in vitro transcription-translation assay (S30 extract, firefly luciferase reporter)
# Type: biochemical
# conditionInfo: Table A
pIC50: −log10 of the molar value. Structures can show the parent of a compound that is named as a salt.

{"compound": "NC[C@H](O)C[C@@H]1NC(=O)[C@@H](N)Cc2cc(ccc2O)-c2ccc(O)c(c2)C[C@@H](C(=O)O)NC1=O [Example 20A, dihydrochloride, reference compound]", "pIC50": 5.82}
{"compound": "CN1C(=O)[C@H](C[C@@H](O)CN)NC(=O)[C@@H](N)Cc2cc(ccc2O)-c2ccc(O)c(c2)C[C@H]1C(=O)NC1CCNCC1 [Example 2, trihydrochloride]", "pIC50": 6.70}
{"compound": "NCCC[C@@H]1NC(=O)[C@@H](N)Cc2cc(ccc2O)-c2ccc(O)c(c2)C[C@@H](C(=O)NCCN)NC1=O", "pIC50": 6.30}
{"compound": "CN1C(=O)[C@H](C[C@@H](O)CN)NC(=O)[C@@H](N)Cc2cc(ccc2O)-c2ccc(O)c(c2)C[C@H]1C(=O)NCCN [Example 1, trihydrochloride]", "pIC50": 7.00}
{"compound": "CN1C(=O)[C@H](CCCN)NC(=O)[C@@H](N)Cc2cc(ccc2O)-c2ccc(O)c(c2)C[C@H]1C(=O)NCCN [Example 3, trihydrochloride]", "pIC50": 6.46}

###

# studyTarget: S. aureus 133 Translation
# testDescription: S. aureus in vitro transcription-translation assay (S30 extract, firefly luciferase reporter)
# Assay type: biochemical
# conditionInfo: Table B
Where a name gives a salt, the structure may show the parent alone.

{"molecule": "NCCC[C@H](N)CNC(=O)[C@@H]1Cc2cc(ccc2O)-c2ccc(O)c(c2)C[C@H](N)C(=O)N[C@@H](CCCN)C(=O)N1", "displayUnit": "nM", "IC50": 100}
{"molecule": "NCCC[C@@H]1NC(=O)[C@@H](N)Cc2cc(ccc2O)-c2ccc(O)c(c2)C[C@@H](C(=O)NCCN)NC1=O", "displayUnit": "nM", "IC50": 500}
{"molecule": "NCCCNCCCNC(=O)[C@@H]1Cc2cc(ccc2O)-c2ccc(O)c(c2)C[C@H](N)C(=O)N[C@@H](CCCN)C(=O)N1", "displayUnit": "nM", "IC50": 400}
{"molecule": "CN1C(=O)[C@H](CCCN)NC(=O)[C@@H](N)Cc2cc(ccc2O)-c2ccc(O)c(c2)C[C@H]1C(=O)NCCN [Example 3, trihydrochloride]", "displayUnit": "nM", "IC50": 350}
{"molecule": "NC[C@H](O)C[C@@H]1NC(=O)[C@@H](N)Cc2cc(ccc2O)-c2ccc(O)c(c2)C[C@@H](C(=O)O)NC1=O [Example 20A, dihydrochloride, reference compound]", "displayUnit": "nM", "IC50": 1500}
{"molecule": "NCCC[C@@H]1NC(=O)[C@@H](N)Cc2cc(ccc2O)-c2ccc(O)c(c2)C[C@@H](C(=O)NCCN(CCN)CCN)NC1=O", "displayUnit": "nM", "IC50": 150}
{"molecule": "CN1C(=O)[C@H](C[C@@H](O)CN)NC(=O)[C@@H](N)Cc2cc(ccc2O)-c2ccc(O)c(c2)C[C@H]1C(=O)NCCN [Example 1, trihydrochloride]", "displayUnit": "nM", "IC50": 100}
